Source of measurements: patent US20250051375A1

I'd be grateful if you could share measured EC50 for these entries.
- Tested on: HIV-1 IIIB strain
- ASSAY PROTOCOL: MT-4 HIV Wild Type Virus Infection Assay (IIIB Virus)
- Type: cell-based
- CONDITION SET: Human immunodeficiency virus 1, IIIB, MT4, 120 h, MT-4 cells acutely infected with HIV-1 IIIB, 5 day incubation, Cell-titer glo
Could you give the number and then its unit, please?

Quick one: EC50 of `COC(=O)N[C@H](C(=O)N[C@@H](Cc1ccc(C#Cc2cnc(N3CC4CCC(C3)N4C3COC3)nc2)cc1)[C@H](CN(Cc1c(F)cc(-c2ccn(C(F)F)n2)cc1F)NC(=O)[C@@H](NC(=O)OC)C(C)(C)C(F)(F)F)OC(=O)CC(C)(C)c1c(CC(=O)N2C[C@H](O)C[C@H]2C(=O)O)cc(C)cc1OP(=O)(O)O)C(C)(C)C(F)(F)F` ? 370 nM

Quick one: EC50 of `COC(=O)N[C@H](C(=O)N[C@@H](Cc1ccc(C#Cc2cnc(N3CC4CCC(C3)N4C3COC3)nc2)cc1)[C@H](CN(Cc1c(F)cc(-c2ccn(C(F)F)n2)cc1F)NC(=O)[C@@H](NC(=O)OC)C(C)(C)C(F)(F)F)OC(=O)CC(C)(C)c1c(CC(=O)N[C@@H](C)C(=O)O)cc(C)cc1OP(=O)(O)O)C(C)(C)C(F)(F)F` ? 64.6 nM

Quick one: EC50 of `COC(=O)N[C@H](C(=O)N[C@@H](Cc1ccc(C#Cc2cnc(N3CC4CCC(C3)N4C3COC3)nc2)cc1)[C@H](CN(Cc1c(F)cc(-c2ccn(C(F)F)n2)cc1F)NC(=O)[C@@H](NC(=O)OC)C(C)(C)C(F)(F)F)OC(=O)CC(C)(C)c1c(CC(=O)NCc2ccc(C#N)cc2)cc(C)cc1OP(=O)(O)O)C(C)(C)C(F)(F)F` ? 636 nM

Quick one: EC50 of `COC(=O)N[C@H](C(=O)N[C@@H](Cc1ccc(C#Cc2cnc(N3CC4CCC(C3)N4C3COC3)nc2)cc1)[C@H](CN(Cc1c(F)cc(-c2ccn(C(F)F)n2)cc1F)NC(=O)[C@@H](NC(=O)OC)C(C)(C)C(F)(F)F)OC(=O)CC(C)(C)c1c(CC(=O)N2CCC[C@@H]2C(=O)O)cc(C)cc1OP(=O)(O)O)C(C)(C)C(F)(F)F` ? 452 nM

Quick one: EC50 of COC(=O)N[C@H](C(=O)N[C@@H](Cc1ccc(C#Cc2cnc(N3CC4CCC(C3)N4C3COC3)nc2)cc1)[C@H](CN(Cc1c(F)cc(-c2ccn(C(F)F)n2)cc1F)NC(=O)[C@@H](NC(=O)OC)C(C)(C)C(F)(F)F)OC(=O)CC(C)(C)c1c(CC(=O)NC(CP(=O)(O)O)C(=O)O)cc(C)cc1OP(=O)(O)O)C(C)(C)C(F)(F)F (stereo partly drawn) ? 179 nM

Quick one: EC50 of `COC(=O)N[C@H](C(=O)N[C@@H](Cc1ccc(C#Cc2cnc(N3CC4CCC(C3)N4C3COC3)nc2)cc1)[C@H](CN(Cc1c(F)cc(-c2ccn(C(F)F)n2)cc1F)NC(=O)[C@@H](NC(=O)OC)C(C)(C)C(F)(F)F)OC(=O)CC(C)(C)c1c(CC(=O)N[C@H]2C[C@H](C(=O)O)C2)cc(C)cc1OP(=O)(O)O)C(C)(C)C(F)(F)F` ? 60.6 nM
